Just for reference, ChEMBL document CHEMBL3864156 is where these values come from.

protocol.summary: 1-octanol-water partition coefficient, log P of the compound
Format: physicochemical
condition: 1-octanol/water; read-out: logP
result.type: logP
Give the figure by itself; no unit, no explanation.

Below: 3 compounds and their reported logP.
compound: CC1=NN(c2ccccc2)C(=O)C1 [EDARAVONE]
result.type: logP
quantitative.readout: 0.86
--
compound: O=c1c2ccccc2[se]n1-c1ccccc1 [EBSELEN]
result.type: logP
quantitative.readout: 1.25
--
compound: CC(C)(Sc1cc(C(C)(C)C)c(O)c(C(C)(C)C)c1)Sc1cc(C(C)(C)C)c(O)c(C(C)(C)C)c1 [PROBUCOL]
result.type: logP
quantitative.readout: 1.02

Query compound follows.
Input: Write down logP measured for item CC(=O)CCCCn1c(=O)c2c(ncn2C)n(C)c1=O [PENTOXIFYLLINE]
Output: 0.19
